The reported numbers originate from patent US11414416B1.

biological target: Nanoluciferase-BRD9 fusion protein (Homo sapiens (Human), UniProt Q9H8M2); assay: SYO1 BRD9 NanoLuc degradation assay; format: cell-based; conditions: Table 5B; SYO-1 cells expressing 3×FLAG-NLuc-BRD9, 6 hours; read-out: SYO1 BRD9-NanoLuc degradation IC50
Sequence (Q9H8M2 whole entry, the tested form may be a part): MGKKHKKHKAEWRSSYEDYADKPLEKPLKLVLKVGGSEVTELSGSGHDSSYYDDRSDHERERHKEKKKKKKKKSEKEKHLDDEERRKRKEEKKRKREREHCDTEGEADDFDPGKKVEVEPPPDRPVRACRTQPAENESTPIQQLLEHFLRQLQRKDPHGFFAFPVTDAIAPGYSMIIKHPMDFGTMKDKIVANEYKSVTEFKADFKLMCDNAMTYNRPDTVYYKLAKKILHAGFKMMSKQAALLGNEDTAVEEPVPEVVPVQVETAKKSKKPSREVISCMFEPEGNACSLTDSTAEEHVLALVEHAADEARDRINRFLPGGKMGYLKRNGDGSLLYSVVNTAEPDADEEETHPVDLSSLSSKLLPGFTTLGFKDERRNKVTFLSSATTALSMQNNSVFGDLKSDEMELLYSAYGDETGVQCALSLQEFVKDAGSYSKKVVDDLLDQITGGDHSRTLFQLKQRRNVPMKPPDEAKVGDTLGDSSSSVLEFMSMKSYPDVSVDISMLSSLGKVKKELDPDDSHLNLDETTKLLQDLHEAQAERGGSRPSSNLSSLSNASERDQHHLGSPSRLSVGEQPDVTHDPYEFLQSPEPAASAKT
Would you kindly list DC50 for each of these molecules?

// solved cases for DC50 follow
{"molecule": "COc1cc(-c2cn(C)c(=O)c3cnccc23)cc(OC)c1CN1CC(n2cc(COCCOc3ccc4c(c3)C(=O)N(C3CCC(=O)NC3=O)C4=O)nn2)C1 (centres unmarked)", "metricName": "DC50", "testResult": "< 10 nM"}
{"molecule": "COc1cc(-c2cn(C)c(=O)c3cnccc23)cc(OC)c1CN1CC2(C1)CN(C(=O)CCC#Cc1ccc3c(c1)C(=O)N(C1CCC(=O)NC1=O)C3=O)C2 (centres unmarked)", "metricName": "DC50", "testResult": "10 to 100 nM"}
{"molecule": "COc1cc(-c2cn(C)c(=O)c3cnccc23)cc(OC)c1CN1CCC2(CCC(C(=O)CCC#Cc3ccc4c(c3)C(=O)N(C3CCC(=O)NC3=O)C4=O)C2)CC1 (centres unmarked)", "metricName": "DC50", "testResult": "< 10 nM"}
{"molecule": "COc1cc(-c2cn(C)c(=O)c3cnccc23)cc(OC)c1CN(C)C(=O)CCCCN1CCCC2(CC(Oc3ccc4c(c3)C(=O)N([C@@H]3CCC(=O)NC3=O)C4=O)C2)C1 (some centres unmarked)", "metricName": "DC50", "testResult": "< 10 nM"}

Could you now consider this next molecule?
Request body: readout DC50, system Nanoluciferase-BRD9 fusion protein (Homo sapiens (Human), UniProt Q9H8M2), query COc1cc(-c2cn(C)c(=O)c3cnccc23)cc(OC)c1CN(C)CCCCN1CC2(C1)CN(c1ccc3c(c1)C(=O)N(C1CCC(=O)NC1=O)C3=O)C2 (centres unmarked) . Return the value.
< 10 nM
